Values from patent US8426429B2

SUBJECT_OF_TEST: β-secretase (BACE) (Homo sapiens)
Construct: purchased Panvera
EXPERIMENT_DESCRIPTION: BACE FS1 % Inhibition Assay
Assay type: biochemical
ASSAY_CONDITIONS: 0.3 μM compound; FS1 substrate
% Inhibition (FS) for assorted compounds
The reply should contain only the number, in %.

CN(CCc1ccccc1)C(=O)CC[C@@H](C1CCCCC1)N1Cc2cc(-c3ccccc3F)ccc2N=C1N :: 46

# lookup: % Inhibition (FS) of COC(=O)C(COCc1ccccc1)N(C)C(=O)CCC(C1CCCCC1)N1Cc2cc(Oc3ccccc3)ccc2N=C1N (stereo not shown)
69

Same question, COC(=O)[C@H](COCc1ccccc1)N(C)C(=O)CC[C@@H](C1CCOCC1)N1Cc2cc(Oc3ccccc3)ccc2N=C1N this time
97

Query NC1=Nc2ccc(-c3ccccc3Cl)cc2CN1CCNC(=O)C1CCOCC1 next
33

* * *

SUBJECT_OF_TEST: β-secretase (BACE) (Homo sapiens, UniProt P56817)
Construct: purchased Panvera
Sequence (P56817 46-501): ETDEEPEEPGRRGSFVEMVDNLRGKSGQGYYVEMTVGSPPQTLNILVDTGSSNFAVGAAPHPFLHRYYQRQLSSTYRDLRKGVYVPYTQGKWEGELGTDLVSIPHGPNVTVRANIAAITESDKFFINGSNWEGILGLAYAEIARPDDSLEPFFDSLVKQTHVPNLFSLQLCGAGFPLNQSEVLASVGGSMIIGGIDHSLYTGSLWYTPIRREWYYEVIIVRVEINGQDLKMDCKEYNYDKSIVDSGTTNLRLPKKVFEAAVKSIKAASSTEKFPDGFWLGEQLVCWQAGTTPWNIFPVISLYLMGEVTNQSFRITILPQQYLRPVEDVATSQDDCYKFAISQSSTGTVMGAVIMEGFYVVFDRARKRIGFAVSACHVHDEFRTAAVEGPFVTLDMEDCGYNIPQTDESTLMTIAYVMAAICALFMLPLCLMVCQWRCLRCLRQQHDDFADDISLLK
EXPERIMENT_DESCRIPTION: BACE Assay-1 (MCA-substrate, IC50)
Type: biochemical
ASSAY_CONDITIONS: procedure of Example 158
PROPERTY_NAME: IC50
Kindly write the number and append the unit.

The cases that follow already have their IC50 on record.
CCCN1Cc2cc(Oc3cccc(CNCc4cccc(O)c4)c3)ccc2N=C1N :: 1.4 µM
CN(C(=O)CC(CC(=O)N(C)C1CCCCC1)N1Cc2cc(Oc3ccccc3)ccc2N=C1N)C1CCCCC1 :: 0.82 µM
CCCN1Cc2cc(Oc3cccc(CNC(=O)c4c(C)cc(C)cc4C)c3)ccc2N=C1N :: 0.17 µM
CSc1ccccc1-c1ccc2c(c1)CN(Cc1cccc(C(=O)N(C)C3CCCCC3)c1)C(N)=N2 :: 0.14 µM
COc1ccccc1-c1ccc2c(c1)CN([C@@H](CCC(=O)N(C)C1CCCCC1)C1CCCCC1)C(N)=N2 :: 0.03 µM

Which value of IC50 has been reported for CCCN1Cc2cc(Oc3cccc(CNS(=O)(=O)c4ccccc4)c3)ccc2N=C1N in the records?
2.9 µM

Try CCCC(CCC(=O)N(C)C1CCCCC1)N1Cc2cc(Oc3ccccc3)ccc2N=C1N (centres unmarked) next.
0.048 µM

What do you get for CCCN1Cc2cc(Oc3cccc(N(C#N)CC4CCCCC4)c3)ccc2N=C1N ?
0.97 µM

* * *

# % Inhibition (FS) annotations
SUBJECT_OF_TEST: β-secretase (BACE) (Homo sapiens, UniProt P56817)
Construct: purchased Panvera
EXPERIMENT_DESCRIPTION: BACE FS1 % Inhibition Assay
Type: biochemical
ASSAY_CONDITIONS: 3 μM test compound; 3 µM
Output should be the measured figure followed by the unit it is expressed in.

Solved entries:
CCCC(CNC(=O)C12CC3CC(CC(C3)C1)C2)N1Cc2cc(Oc3ccccc3)ccc2N=C1N (stereo not drawn) [Compound 602] :: 121%
CCCC(CNC(=O)C12CC3CC(CC(C3)C1)C2)N1Cc2cc(Oc3ccccc3)ccc2N=C1N (stereo not drawn) [Compound 555] :: 46%

Okay, now this molecule:
Fill blank: measured % Inhibition (FS) of the molecule NC1=Nc2ccc(-c3ccc(F)cc3)cc2CN1CCNC(=O)C1CCCCC1 [Compound 623] is ____.
82%
